Where do these numbers come from? They come from patent US20090325959A1.

# targetSystem: ROCK2 (Homo sapiens)
# Construct: purchased Upstate/Chemicon 14-451
# Sequence (O75116 11-552 limits assumed): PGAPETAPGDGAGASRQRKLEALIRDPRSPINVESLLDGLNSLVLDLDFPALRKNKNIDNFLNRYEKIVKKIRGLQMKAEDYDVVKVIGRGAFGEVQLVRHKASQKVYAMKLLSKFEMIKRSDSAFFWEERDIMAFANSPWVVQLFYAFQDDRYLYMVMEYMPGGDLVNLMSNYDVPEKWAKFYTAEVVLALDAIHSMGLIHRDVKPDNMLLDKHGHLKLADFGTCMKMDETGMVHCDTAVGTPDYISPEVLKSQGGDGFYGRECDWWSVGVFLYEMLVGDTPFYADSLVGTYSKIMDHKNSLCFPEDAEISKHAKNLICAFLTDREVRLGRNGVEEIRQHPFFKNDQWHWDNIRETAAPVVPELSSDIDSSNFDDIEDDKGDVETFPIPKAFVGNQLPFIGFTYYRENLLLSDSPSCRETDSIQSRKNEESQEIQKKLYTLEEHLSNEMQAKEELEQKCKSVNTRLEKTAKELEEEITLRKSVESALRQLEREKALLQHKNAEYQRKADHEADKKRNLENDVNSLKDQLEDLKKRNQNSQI
# procedureSummary: Rho kinase inhibition assay (IMAP fluorescence polarization), ROCK2;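 also: kinase reaction started with 10 µM ATP and run 60 min at room temperature, then phosphorylated substrate captured on IMAP beads for 30 min and fluorescence polarization read in mP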
# Assay type: biochemical
# conditionNotes: 10 μM ATP; read-out: ROCK2 Ki, Avg
pKi: −log10 of the molar value.
Kind request: treat 8 as inclusive, so pKi at 8 or higher is condition met, anything lower is condition not met.

                                 smilesentry          targetsystem        answerlabel
 0  Fc1ccc(CN2CC[C@@H](Nc3cccc4cnccc34)C2)cc1F  ROCK2 (Homo sapiens)  condition not met
 1  Cc1ccc(CN2CCC[C@@H](Nc3ccc4[nH]ncc4c3)C2)cc1OCCO  ROCK2 (Homo sapiens)      condition met
 2  c1cc(N[C@@H]2CCN(Cc3ccc4cc[nH]c4c3)C2)c2ccncc2c1  ROCK2 (Homo sapiens)      condition met
 3  CS(=O)(=O)N1CCCc2cc(CN3CC[C@@H](Nc4cccc5cnccc45)C3)ccc21  ROCK2 (Homo sapiens)  condition not met
 4  CCSc1ccc(CN2CCC[C@H](Nc3ccc4[nH]ncc4c3)C2)cc1  ROCK2 (Homo sapiens)  condition not met
 5  CS(=O)(=O)N1CCCc2cc(CN3CCC[C@H](Nc4ccc5[nH]ncc5c4)C3)ccc21  ROCK2 (Homo sapiens)  condition not met
 6  COc1ccc(CN2CC[C@@H](Nc3ccc4[nH]ncc4c3)C2)cc1  ROCK2 (Homo sapiens)  condition not met
 7  OCCOc1ccc(CN2CCC[C@H](Nc3ccc4[nH]ncc4c3)C2)cc1  ROCK2 (Homo sapiens)  condition not met
 8  CCSc1ccc(CN2CCC[C@@H](Nc3ccc4[nH]ncc4c3)C2)cc1  ROCK2 (Homo sapiens)  condition not met
 9  CCOC(=O)c1ccc(CN2CCC[C@@H](Nc3ccc4[nH]ncc4c3)C2)cc1  ROCK2 (Homo sapiens)  condition not met
10  Cc1ccc(CN2CCC[C@H](Nc3ccc4[nH]ncc4c3)C2)cc1OCCO  ROCK2 (Homo sapiens)      condition met
11  c1cc(N[C@@H]2CCN(Cc3nc4ccccc4[nH]3)C2)c2ccncc2c1  ROCK2 (Homo sapiens)  condition not met
12  Cc1ccc(CN2CC[C@@H](Nc3cccc4cnccc34)C2)cc1OCC(N)=O  ROCK2 (Homo sapiens)      condition met
13  Cc1nc(CN2CCC[C@H](Nc3ccc4[nH]ncc4c3)C2)c(C)o1  ROCK2 (Homo sapiens)  condition not met
14  CS(=O)(=O)c1cccc(CN2CCC[C@@H](Nc3ccc4[nH]ncc4c3)C2)c1  ROCK2 (Homo sapiens)  condition not met
15  CCCS(=O)(=O)Nc1cc(CN2CCC[C@H](Nc3ccc4[nH]ncc4c3)C2)ccc1C  ROCK2 (Homo sapiens)      condition met
16  CCOc1cccc(CN2CCC[C@@H](Nc3ccc4[nH]ncc4c3)C2)c1  ROCK2 (Homo sapiens)  condition not met
17  c1cc(CN2CCC[C@@H](Nc3ccc4[nH]ncc4c3)C2)cc(C2CC2)c1  ROCK2 (Homo sapiens)  condition not met
18  C#Cc1ccc(CN2CC[C@@H](Nc3cccc4cnccc34)C2)cc1  ROCK2 (Homo sapiens)      condition met
19  c1cc(CN2CC[C@@H](Nc3cccc4cnccc34)C2)cc(C2CC2)c1  ROCK2 (Homo sapiens)  condition not met
20  Cc1ccc(CN2CCC[C@@H](Nc3ccc4[nH]ncc4c3)C2)cc1O  ROCK2 (Homo sapiens)      condition met
21  c1ccc(Cn2cc(CN3CCC[C@@H](Nc4ccc5[nH]ncc5c4)C3)c3ccccc32)cc1  ROCK2 (Homo sapiens)  condition not met
22  Clc1ccc(CN2CCC[C@H](Nc3ccc4[nH]ncc4c3)C2)cc1  ROCK2 (Homo sapiens)      condition met
